experimental_system: human 5-HT6 receptor (Homo sapiens, UniProt P50406)
Construct: host or cells: CHO-K1 cells, stably transfected; membranes prepared in house
Sequence (P50406 whole entry): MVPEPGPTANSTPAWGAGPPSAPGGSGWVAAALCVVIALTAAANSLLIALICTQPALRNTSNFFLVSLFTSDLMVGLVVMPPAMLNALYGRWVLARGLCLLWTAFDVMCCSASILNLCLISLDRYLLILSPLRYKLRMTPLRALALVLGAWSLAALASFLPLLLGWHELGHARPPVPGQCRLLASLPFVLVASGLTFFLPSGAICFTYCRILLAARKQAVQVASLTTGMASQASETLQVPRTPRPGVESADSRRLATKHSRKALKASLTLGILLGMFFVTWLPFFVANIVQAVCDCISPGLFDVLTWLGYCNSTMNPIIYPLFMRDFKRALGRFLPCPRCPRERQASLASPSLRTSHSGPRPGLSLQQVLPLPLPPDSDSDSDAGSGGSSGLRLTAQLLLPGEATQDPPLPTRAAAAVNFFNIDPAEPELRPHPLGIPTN
assay_info: Human 5-HT6 Receptor Binding Assay ([3H]LSD displacement, scintillation beads)
cond: membranes of CHO-K1 cells with recombinant human 5-HT6, 4 nM [3H]LSD; Table 1, class symbols; read-out: h5-HT6 (Ki)
Give measured Ki for each item. Keep answers brief.

Which Ki value belongs to CC(C)COc1cc(F)cc(S(=O)(=O)c2ccc3c(c2)OC2CNCCC32)c1 (stereo not shown) [Example 414] ?
< 500 nM

Which Ki value belongs to CC12CCNCC1Oc1cc(S(=O)(=O)c3cncc(F)c3)ccc12 (stereo not shown) [Example 429] ?
> 1000 nM

Which Ki value belongs to [O-][S+](c1ccc2c(c1)OC1CNCCC21)c1cc(Cl)ccc1Cl (stereo not shown) [Example 135] ?
> 1000 nM

Which Ki value belongs to CC(=O)N(C)CCC1NCCc2c1oc1cc(S(=O)(=O)c3cccc(Cl)c3)ccc21 (racemic) [Example 542] ?
< 500 nM

====

experimental_system: human 5-HT6 receptor (Homo sapiens)
Construct: host or cells: CHO-K1 cells, stably transfected; membranes prepared in house
assay_info: Human 5-HT6 Receptor Binding Assay ([3H]LSD displacement, scintillation beads)
cond: membranes of CHO-K1 cells with recombinant human 5-HT6, 4 nM [3H]LSD; Table 1, class symbols; read-out: h5-HT6 (Ki)
recorded_endpoint: Ki

Which Ki value belongs to CCOc1cc(F)cc(S(=O)(=O)c2ccc3c(c2)OC2CNCCC32)c1 (stereo not drawn) [Example 401] ?
< 0.5 µM

Which Ki value belongs to O=S(=O)(c1ccc2c3c(oc2c1)CNCC3)c1c(F)c(F)cc(F)c1F ?
< 0.5 µM

Which Ki value belongs to CCCCCOc1cccc(S(=O)(=O)c2ccc3c(c2)OC2CNCCC32)c1 (stereo not drawn) ?
< 0.5 µM

Which Ki value belongs to CC12CCN(CCc3ccccc3)CC1Oc1ccc(OS(=O)(=O)Cc3ccccc3)cc12 (stereo not drawn) ?
> 1 µM

Which Ki value belongs to O=S(=O)(c1ccncc1)c1ccc2oc3c(c2c1)CCNC3 ?
> 1 µM

Which Ki value belongs to Cc1ccncc1S(=O)(=O)c1ccc2c3c(oc2c1)C(C)(C)NCC3 ?
< 0.5 µM

Which Ki value belongs to O=S(=O)(Oc1ccc2c(c1)OC1CNCCC21)c1csc2ccccc12 (stereo not drawn) ?
< 0.5 µM

Which Ki value belongs to CC1(C)CNCc2oc3cc(S(=O)(=O)c4cncc(Cl)c4)ccc3c21 ?
< 0.5 µM

Which Ki value belongs to O=S(=O)(Oc1ccc2c(c1)C1CCNCC1O2)c1cccc2cnccc12 (stereo not drawn) ?
> 1 µM

Which Ki value belongs to COc1ccc(S(=O)(=O)c2ccc3c(c2)C2CCNCC2O3)cc1 (stereo not drawn) ?
> 1 µM

Which Ki value belongs to O=S(=O)(c1ccc2c(c1)OC1CNCCC21)c1cccc(OCC2CCOCC2)c1F (stereo not drawn) ?
< 0.5 µM

Which Ki value belongs to O=S(=O)(c1ccccc1)c1ccc2c(c1)OC1CNCCC21 (stereo not drawn) [Example 326] ?
< 0.5 µM

Which Ki value belongs to Cc1ccc(S(=O)(=O)Oc2ccc3c(c2)OC2CNCCC32)cc1Cl (stereo not drawn) ?
> 1 µM

Which Ki value belongs to O=S(=O)(c1cccc(OC(F)(F)F)c1)c1ccc2c(c1)OC1CNCCC21 (stereo not drawn) [Example 160] ?
< 0.5 µM

Which Ki value belongs to O=S(=O)(c1cccc(Cl)c1)c1ccc2c3c([nH]c2c1)C1(CCCOC1)NCC3 (single isomer, unassigned) ?
< 0.5 µM

Which Ki value belongs to COc1cccc(S(=O)(=O)Oc2ccc3c(c2)OC2CNCCC32)c1 (stereo not drawn) ?
< 0.5 µM

Which Ki value belongs to CC1(C)CNC2(CCOCC2)c2oc3cc([S+]([O-])c4cccc(F)c4)ccc3c21 (racemic) ?
< 0.5 µM

Which Ki value belongs to Ic1ccc2c3c([nH]c2c1)C1(CCCOC1)NCC3 (stereo not drawn) ?
< 0.5 µM

====

experimental_system: human 5-HT6 receptor (Homo sapiens)
Construct: host or cells: CHO-K1 cells, stably transfected; membranes prepared in house
assay_info: Human 5-HT6 Receptor Binding Assay ([3H]LSD displacement, scintillation beads)
cond: membranes of CHO-K1 cells with recombinant human 5-HT6, 4 nM [3H]LSD; Table 1, class symbols; read-out: h5-HT6 (Ki)
Give measured Ki for each item. Keep answers brief.

Which Ki value belongs to CC12CCNCC1Oc1ccc(S(=O)(=O)c3ccccc3F)cc12 (stereo not drawn) ?
< 500 nM

Which Ki value belongs to CC(C)Oc1cc(OC(CO)CCl)cc(S(=O)(=O)c2ccc3c(c2)OC2CNCCC32)c1 (stereo not drawn) ?
< 500 nM

Which Ki value belongs to O=S(=O)(c1ccc2c3c(oc2c1)CNCC3)c1cccc2c1OCCO2 ?
< 500 nM

Which Ki value belongs to CC(C)S(=O)(=O)c1ccc2c3c(oc2c1)CNCC3 ?
> 1000 nM

Which Ki value belongs to CC(C)Oc1cccc(S(=O)(=O)c2ccc3c4c(oc3c2)C2(CCOC2)NCC4)c1 (single isomer, unassigned) [Example 32] ?
< 500 nM

Which Ki value belongs to Cc1c(Cl)cccc1S(=O)(=O)c1ccc2c3c(oc2c1)CNCC3 ?
< 500 nM

Which Ki value belongs to Cc1cccc(S(=O)(=O)Oc2ccc3c(c2)OC2CNCCC32)c1 (stereo not drawn) ?
< 500 nM

Which Ki value belongs to O=[N+]([O-])c1ccc(S(=O)(=O)c2ccc3c(c2)C2CCNCC2O3)cc1 (stereo not drawn) ?
> 1000 nM

Which Ki value belongs to O=S(=O)(Nc1ccc2c(c1)C1CCNCC1O2)c1cc(Cl)cc(Cl)c1 (stereo not drawn) ?
< 500 nM

====

Counter-ions that a name gives are not always drawn.
recorded_endpoint: melting point

Which melting point value belongs to COc1cc(OC2CCC2)cc(S(=O)(=O)c2ccc3c(c2)OC2CNCCC32)c1 (stereo not shown) (as salt: HCl) ?
218 to 220 °C

Which melting point value belongs to CC12CCNCC1Oc1ccc(S(=O)(=O)c3cc[n+]([O-])cc3)cc12 (racemic) (as salt: HCl) ?
207 to 210 °C

Which melting point value belongs to CC12CCNCC1Oc1ccc(S(=O)(=O)c3ccncc3)cc12 (racemic) (as salt: HCl) ?
186 to 188 °C

Which melting point value belongs to Cc1c(Cl)cccc1S(=O)(=O)c1ccc2c(c1)OC1CNCCC21 (stereo not shown) ?
188 to 189 °C

Which melting point value belongs to CC(=O)Nc1ccc(S(=O)(=O)c2ccc3c(c2)C2(C)CCNCC2O3)cc1 (stereo not shown) ?
212 to 214 °C

Which melting point value belongs to O=S(=O)(c1cccc(Oc2cnccn2)c1)c1ccc2c(c1)OC1CNCCC21 (stereo not shown) (as salt: HCl) ?
234 to 236 °C

Which melting point value belongs to O=S(=O)(c1cccc(OCC2CCOCC2)c1)c1ccc2c(c1)OC1CNCCC21 (single isomer, unassigned) (as salt: HCl) [Example 548] ?
187 to 189 °C

====

Give measured melting point for each item. Keep answers brief.
Structures can show the parent of a compound that is named as a salt.

Which melting point value belongs to CC(C)Oc1cccc(S(=O)(=O)c2ccc3c4c(oc3c2)C2(CCCOC2)NCC4)c1 (racemic) (as salt: HCl) [Example 23] ?
148 to 155 °C (dec.)

Which melting point value belongs to CCNC(=O)Oc1cccc(S(=O)(=O)c2ccc3c(c2)OC2CNCCC32)c1 (stereo not shown) [Example 628] ?
217 to 219 °C

Which melting point value belongs to CN(C)C(=O)CC1(C)NCCc2c1oc1cc(S(=O)(=O)c3cccc(F)c3)ccc21 (single isomer, unassigned) (as salt: HCl) [Example 50] ?
230 to 233 °C

Which melting point value belongs to CC1(C(F)F)NCCc2c1oc1cc(S(=O)(=O)c3cccc(F)c3F)ccc21 (single isomer, unassigned; enantiomer 2) [Example 472] ?
249 to 252 °C

Which melting point value belongs to C#CCOc1cccc(S(=O)(=O)c2ccc3c(c2)OC2CNCCC32)c1 (stereo not shown) (as salt: HCl) [Example 549] ?
174 to 175 °C

Which melting point value belongs to O=S(=O)(c1cccc(OCC2CCOCC2)c1)c1ccc2c(c1)OC1CNCCC21 (stereo not shown) (as salt: HCl) [Example 581] ?
186 to 188 °C

Which melting point value belongs to COc1ccc(S(=O)(=O)c2ccc3c(c2)C2(C)CCNCC2O3)cc1F (stereo not shown) [Example 95] ?
185 to 187 °C

====

experimental_system: human 5-HT6 receptor (Homo sapiens)
Construct: host or cells: CHO-K1 cells, stably transfected; membranes prepared in house
assay_info: Human 5-HT6 Receptor Binding Assay ([3H]LSD displacement, scintillation beads)
cond: membranes of CHO-K1 cells with recombinant human 5-HT6, 4 nM [3H]LSD; Table 1, class symbols; read-out: h5-HT6 (Ki)
pKi: −log10 of the molar value.
recorded_endpoint: pKi

Which pKi value belongs to COc1cc(OCc2ccccc2)cc(S(=O)(=O)c2ccc3c(c2)OC2CNCCC32)c1 (stereo not drawn) ?
> 6.30

Which pKi value belongs to O=S(=O)(c1cccc(C(F)(F)F)c1)c1ccc2c(c1)OC1CNCCC21 (stereo not drawn) [Example 167] ?
> 6.30

Which pKi value belongs to O=S(=O)(c1ccc(Cl)cc1)c1ccc2oc3c(c2c1)CCNC3 ?
> 6.30

Which pKi value belongs to O=S(=O)(c1ccc2c(c1)OC1CNCCC21)c1c(Cl)cccc1Cl (stereo not drawn) ?
> 6.30

Which pKi value belongs to [O-][S+](c1ccc2oc3c(c2c1)CCNC3)c1ccccc1-c1ccccc1 (stereo not drawn) ?
> 6.30

Which pKi value belongs to CC12CCNCC1Oc1ccc(OS(=O)(=O)Cc3ccc(F)cc3F)cc12 (stereo not drawn) ?
< 6.00

Which pKi value belongs to CC12CCNCC1Oc1ccc(OS(=O)(=O)c3cccc(C(F)(F)F)c3)cc12 (stereo not drawn) ?
< 6.00

Which pKi value belongs to CC(C)(C)c1ccc(S(=O)(=O)Oc2ccc3c(c2)OC2CNCCC32)cc1 (stereo not drawn) ?
> 6.30

Which pKi value belongs to CC12CCNCC1Oc1cc(S(=O)(=O)c3cc[nH]c(=O)c3)ccc12 (stereo not drawn) ?
< 6.00

Value source: patent US8765779B2
